System: HEK293 cells
METHOD: Preliminary screening as DNA vectors, GFP transfection of HEK293 cells
Format: cell-based
CONDITION NOTES: HEK293 cells; lipid/DOPE liposome with 75 ng plasmid DNA (psin-EGFP-IRES-Puro); number of cells expressing GFP divided by total number of nuclei (Hoechst)
Readings of Absolute DNA transfection efficiency in HEK293 cells for the listed compounds
Hi! Could you send only the number? It should be in %, unit omitted.

[[record]]
entry_smiles = "CCCCCCCCCCCCNc1nc(NCCCCCC)nc(NCCN(CC)CC)n1"
measurement_units = "%"
measured = 0.0


Absolute DNA transfection efficiency in HEK293 cells for CCCCCCCCCCCCCCCCSc1nc(NCCCN2CCN(C)CC2)nc(SCCCCCCCC)n1 ?
6.7

Absolute DNA transfection efficiency in HEK293 cells for CCCCCCCCCCCCCCCCCCNc1nc(NCCCCCCCC)nc(NCCN(C)C)n1 ?
1.8

Absolute DNA transfection efficiency in HEK293 cells for CCCCCCCCNc1nc(NCCCCCCC)nc(NCCN2CCOCC2)n1 ?
0.0

###

Tested on: MCF7 cells
METHOD: Transfection of MCF7 cell line, DNA vectors
Type: cell-based
Design: concentration or dose not given beside the values
CONDITION NOTES: plasmid DNA, GFP cells / total cells
OBSERVABLE: Absolute DNA transfection efficiency in MCF7 cells (%)
Hi! Could you send only the number? It should be in %, unit omitted.

Examples from the recorded data:
[[record]]
entry_smiles = "CCCCCCCCCCCCSc1nc(NCCCN(C)C)nc(SCCCCCCCC)n1"
measured_on = "MCF7 cells"
measured = 34.4

[[record]]
entry_smiles = "CCCCCCCCCCCSc1nc(NCCCN2CCN(C)CC2)nc(SCCCCCCCC)n1"
measured_on = "MCF7 cells"
measured = 59.8

[[record]]
entry_smiles = "CCCCCCCCCCCCNc1nc(NCCN2CCCC2)nc(SCCCCCCCC)n1"
measured_on = "MCF7 cells"
measured = 13.7

[[record]]
entry_smiles = "CCCCCCCCCCCCSc1nc(NCCN2CCCC2)nc(SCCCCCCC)n1"
measured_on = "MCF7 cells"
measured = 3.0


Moving on to another compound below.
State its Absolute DNA transfection efficiency in MCF7 cells on MCF7 cells: CCCCCCCCCCCCCNc1nc(NCCCN(C)C)nc(SCCCCCCCC)n1
32.2

###

Tested on: HEK293 cells
METHOD: Preliminary screening as mRNA vectors, EGFP mRNA transfection of HEK293 cells
Type: cell-based
CONDITION NOTES: HEK293 cells, 96-well plates, EGFP mRNA 50 ng per well; percentage of GFP fluorescent cells relative to total number of cells (Hoechst)
Readings of Absolute mRNA transfection efficiency in HEK293 cells for the listed compounds
In your response, the unit should come after the numeric value.

Examples from the recorded data:
[[record]]
entry_smiles = "CCCCCCCCCCCCCCCCCCSc1nc(NCCN(CC)CC)nc(SCCCCCCCCC)n1"
measured = "1.9%"

[[record]]
entry_smiles = "CCCCCCCCCCCNc1nc(NCCCCCCCCC)nc(NCCN2CCCCC2)n1"
measured = "0.0%"

[[record]]
entry_smiles = "CCCCCCCCCCCCSc1nc(NCCCN(C)C)nc(SCCCCCCCCCC)n1"
measured = "82.4%"

[[record]]
entry_smiles = "CCCCCCCCCCCCCCCSc1nc(NCCCN2CCOCC2)nc(SCCCCCCCCC)n1"
measured = "5.4%"

[[record]]
entry_smiles = "CCCCCCCCCCCCCCCCCCSc1nc(NCCN(CC)CC)nc(SCCCCCCCCCCCCCC)n1"
measured = "2.7%"


Absolute mRNA transfection efficiency in HEK293 cells for CCCCCCCCCCCCCCCSc1nc(NCCN2CCCCC2)nc(SCCCCCCCCCCCCCC)n1 ?
0.1%

Absolute mRNA transfection efficiency in HEK293 cells for CCCCCCCCCCCCCNc1nc(NCCCCCCC)nc(NCCN2CCCCC2)n1 ?
0.3%

Absolute mRNA transfection efficiency in HEK293 cells for CCCCCCCCCCCCSc1nc(NCCN2CCCCC2)nc(SCCCCCCCCCCC)n1 ?
0.4%

Absolute mRNA transfection efficiency in HEK293 cells for CCCCCCCCCSc1nc(NCC2CCN(C)CC2)nc(SCCCCCCCCC)n1 ?
34.9%

Absolute mRNA transfection efficiency in HEK293 cells for CCCCCCCCCCCCCCCCCCNc1nc(NCCCCCCCCC)nc(NCCCN2CCN(C)CC2)n1 ?
3.1%
